Listed below: T/C values for each entry.
# System: P388 leukemia ip, CD2F1 mice, survival T/C
# testDetails: NCI In Vivo Anticancer Drug Screen. Data for tumor model P388 Leukemia (intraperitoneal) in CD2F1 (CDF1) mice
# testConditions: endpoint: median survival time; dose: 30.0 mg/kg/injection; schedule: Q01DX005 (ip); vehicle: saline with Tween-80; higher = longer survival
Inconclusive results and toxic doses are left out.

Worked examples follow.
CN(Cc1cnc2nc(N)nc(N)c2n1)c1ccc(C(=O)NC(CCC(=O)OCc2c(Cl)cccc2Cl)C(=O)OCc2c(Cl)cccc2Cl)cc1 (stereo not given) | 87 % of control
COc1ccc(C(C)=O)cc1CSC(=S)N1CCSCC1 | 99 % of control
CC(/C=C/c1ccc(Cl)cc1)=N\NC(N)=S | 124 % of control
O=C(NCCNC(=O)c1cc(Cl)cc(Cl)c1O)c1cc(Cl)cc(Cl)c1O | 92 % of control

Lab note: next molecule to report on.
Q. Enter reported T/C observed with P388 leukemia ip, CD2F1 mice, survival T/C for `O=S(=O)(O)c1cc2cc(S(=O)(=O)O)c3nnc4cc(S(=O)(=O)O)cc5cc(S(=O)(=O)O)c(nnc6cc(S(=O)(=O)O)cc7cc(S(=O)(=O)O)c(nnc(c1)c2c3O)c(O)c76)c(O)c54`
A. 93 % of control

----------
compounds and their reported T/C
# Tested on: P388 leukemia ip, CD2F1 mice, survival T/C
# testDetails: NCI In Vivo Anticancer Drug Screen. Data for tumor model P388 Leukemia (intraperitoneal) in CD2F1 (CDF1) mice
# testConditions: endpoint: median survival time; dose: 50.0 mg/kg/injection; schedule: Q01DX009 (ip); vehicle: saline with Tween-80; higher = longer survival
Toxic doses and inconclusive results are not listed.

# example entries with known answers
C(=Nc1cnc2ccccc2c1)c1ccnc2ccccc12 | 101 % of control
C=CC(=NC(C)(C)C)Nc1ccccc1C(=O)OC | 101 % of control
CCCCCC(CN1CCOCC1)C(=O)/C=C/c1ccccc1 (configuration not stated) | 102 % of control
Nc1ncnc2c1ncn2C1OC(CO)C2OC(=S)OC21 (configuration not stated) | 101 % of control
Cc1c2ccncc2c(C)c2c1[nH]c1ccccc12 | 86 % of control
CCOC(=O)c1ccc(NCc2ccc(CNc3ccc(C(=O)OCC)cc3)cc2)cc1 | 89 % of control

In the following, a different compound is considered.
Q. Sample `CC1=CC(=O)C=CC1=Nc1ccc(N(C)C)cc1` — what was its T/C?
A. 109 % of control

----------
Listed compounds paired with reported T/C
# Test system: P388 leukemia ip, CD2F1 mice, survival T/C
# testDetails: NCI In Vivo Anticancer Drug Screen. Data for tumor model P388 Leukemia (intraperitoneal) in CD2F1 (CDF1) mice
# testConditions: endpoint: median survival time; dose: 50.0 mg/kg/injection; schedule: Q01DX005 (ip); vehicle: Klucel (hydroxypropylcellulose) (HPC); higher = longer survival
# Method: The antitumor activity of compounds was measured in mice bearing transplantable tumors. Survival or tumor size were measured and the results are expressed as the measurement made in the treated group (T) divided by the measurement made in the vehicle treated control group (C). The tumor model used in this assay is P388 Leukemia (intraperitoneal) in CD2F1 (CDF1) mice
Inconclusive results and toxic doses are left out.

Some compounds with recorded T/C:
CCOc1cc2c(cc1C(CC)c1ccccc1)OCO2 (stereo unspecified) | 99 % of control
CC(NNC(=S)N1CCCCCC1)c1ccc2ccccc2n1 (stereo unspecified) | 111 % of control
C/C(=C\C(=O)c1cccc(F)c1)N1CCN(c2ccc(F)cc2)CC1 | 100 % of control
C=CCN1C(SC)=NC(=O)C1(c1ccccc1)c1ccccc1 | 100 % of control
CC(C)CCC1(CCCl)C(=O)NC(=O)NC1=O | 102 % of control

We now examine a further compound.
Q. Which T/C reading was recorded for the compound `CCCCN(CCCC)CCNc1ccc(C)c2sc3c(Cl)cccc3c(=O)c12` ?
A. 99 % of control
